Each entry below carries its recorded pIC50.
target-or-test-system: IDH1^R132H homodimer enzyme (Homo sapiens, UniProt O75874, R132H)
Sequence (O75874 whole entry R132H): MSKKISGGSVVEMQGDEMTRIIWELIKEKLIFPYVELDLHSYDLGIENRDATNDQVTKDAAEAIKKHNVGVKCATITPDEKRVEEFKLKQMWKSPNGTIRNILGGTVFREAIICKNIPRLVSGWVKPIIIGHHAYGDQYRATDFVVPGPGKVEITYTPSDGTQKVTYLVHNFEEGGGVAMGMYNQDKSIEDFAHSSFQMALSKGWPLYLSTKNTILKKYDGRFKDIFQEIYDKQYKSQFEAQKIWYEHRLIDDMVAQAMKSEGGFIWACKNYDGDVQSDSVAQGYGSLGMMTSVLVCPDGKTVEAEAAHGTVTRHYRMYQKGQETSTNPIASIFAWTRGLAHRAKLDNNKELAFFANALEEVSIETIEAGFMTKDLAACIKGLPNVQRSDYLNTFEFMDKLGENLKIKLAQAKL
test-method-notes: NADPH depletion assay, IDH1 R132H
Reminder that pIC50 means the negative base-10 logarithm of the concentration expressed in mol/L.

Illustrative cases are given below, each with its answer.
[[record]]
compound = "C[C@H](Nc1ncc2ccc(=O)n(CC(C)(C)C)c2n1)c1ccc(CN2CCC(F)(F)CC2)cc1F"
metric = "pIC50"
test_result = 6.80

[[record]]
compound = "C=CC(=O)N1CCN(Cc2ccc([C@H](C)Nc3ncc4ccc(=O)n([C@@H](C)CF)c4n3)cc2)CC1"
metric = "pIC50"
test_result = 6.88


Which pIC50 value belongs to "CCN1CCN(c2ccc([C@H](C)Nc3ncc4ccc(=O)n([C@@H](C)C(C)C)c4n3)cc2)CC1" ? 6.01

Which pIC50 value belongs to "C[C@H](Nc1ncc2ccc(=O)n(CC3CC3)c2n1)c1ccc(Cl)cc1" ? 6.13

Which pIC50 value belongs to CC(Nc1ncc2ccc(=O)n(CCF)c2n1)c1ccc(CN2CCC(F)(F)CC2)cc1 (centres unmarked) ? 5.51

Which pIC50 value belongs to CC(C#N)n1c(=O)ccc2cnc(N[C@@H](C)c3ccc(CN4CCCC(F)(F)C4)cc3)nc21 (some centres unmarked) ? 6.68

Which pIC50 value belongs to "C=CC(=O)N1CC=C(c2ccc([C@H](C)Nc3ncc4ccc(=O)n([C@@H](C)C(C)C)c4n3)nc2)CC1" ? 6.47

====

target-or-test-system: IDH1^R132C (Homo sapiens, UniProt O75874, R132C)
Sequence (O75874 whole entry R132C): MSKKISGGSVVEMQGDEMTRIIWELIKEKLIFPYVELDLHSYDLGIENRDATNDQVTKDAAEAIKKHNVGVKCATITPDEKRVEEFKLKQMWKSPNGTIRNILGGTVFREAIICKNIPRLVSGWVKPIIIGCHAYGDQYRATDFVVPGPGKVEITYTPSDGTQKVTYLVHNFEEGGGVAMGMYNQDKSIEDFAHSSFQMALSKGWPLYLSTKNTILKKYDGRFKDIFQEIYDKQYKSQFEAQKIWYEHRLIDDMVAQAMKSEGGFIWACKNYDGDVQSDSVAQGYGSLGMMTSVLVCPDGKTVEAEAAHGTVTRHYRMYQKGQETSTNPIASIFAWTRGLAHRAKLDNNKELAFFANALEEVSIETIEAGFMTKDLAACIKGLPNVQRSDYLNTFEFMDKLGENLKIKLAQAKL
test-method-notes: NADPH depletion assay, IDH1 R132C
Each entry below carries its recorded IC50.

Illustrative cases are given below, each with its answer.
[[record]]
smiles_record = "C/C=C/C(=O)N1CCN(Cc2ccc([C@H](C)Nc3ncc4ccc(=O)n(CC(C)(C)C)c4n3)cc2)CC1"
test_result = "66 nM"

[[record]]
smiles_record = "CC(C)[C@H](C)n1c(=O)ccc2cnc(N[C@@H](C)c3ccc(C4=CCN(C(=O)OC(C)(C)C)CC4)cn3)nc21"
test_result = "89 nM"

[[record]]
smiles_record = "C[C@H](Nc1ncc2ccc(=O)n(CC(C)(C)C)c2n1)c1ccccc1"
test_result = "71 nM"

[[record]]
smiles_record = "C[C@H](Nc1ncc2ccc(=O)n([C@@H](C)C3CCCCC3)c2n1)c1ccc(CN2CCCC(F)(F)C2)cc1"
test_result = "94 nM"

[[record]]
smiles_record = "C=CC(=O)N1CCN(Cc2ccc([C@H](C)Nc3nc(NC)c4ccc(=O)n(CC(C)(C)C)c4n3)cc2)CC1"
test_result = "104 nM"


Which IC50 value belongs to "CC(C)(C)Cn1c(=O)ccc2cnc(NC(C)(C)c3ccccc3)nc21" ? 1410 nM

Which IC50 value belongs to "C=CC(=O)N1CCN(Cc2ccc([C@H](C)Nc3ncc4ccc(=O)n(CC)c4n3)cc2)[C@H](C)C1" ? 624 nM

Which IC50 value belongs to "C=CC(=O)N1CCC(C#N)(c2ccc([C@H](C)Nc3ncc4ccc(=O)n(C(C)C)c4n3)cc2)CC1" ? 196 nM

Which IC50 value belongs to "C[C@H](Nc1cc2c(ccc(=O)n2CC(C)(C)C)cn1)c1ccc(CN2CCCC(F)(F)C2)cc1" ? 48 nM

Which IC50 value belongs to "C[C@H](Nc1ncc2ccc(=O)n(CCF)c2n1)c1ccc(Cl)cc1" ? 1890 nM

Which IC50 value belongs to "C[C@H](Nc1ncc2ccc(=O)n(CC(C)(C)C)c2n1)c1ccc(-c2ccnc(F)c2)cc1" ? 124 nM
